Numbers sourced from patent US9029337B2.

# System: human Factor 7 mRNA
# assay procedure: Dose-dependent antisense inhibition of human Factor 7 in HepB3 cells, electroporation
# Format: cell-based
# condition context: 100 μM, approx. 16 hours (Table 16, Example 8 confirmation)
Strand notation (5' to 3'): a small letter for the sugar, then the base; units joined by * are phosphorothioate-linked, units joined directly phosphodiester-linked; [ ] holds rarer units or linkages, { } end groups; capitals alone tell only the bases. e = 2'-O-(2-methoxyethyl) (MOE); [5mC] = 5-methylcytosine; d = 2'-deoxy (DNA)
As shown below, each of these substances has a reported percent inhibition of Factor 7 mRNA, relative to untreated control cells value.
Your answer should be a plain number; it is taken to be in %.

See these solved cases before continuing.
INSERT INTO measurements (substance, numeric_value) VALUES
  ('407935 (antisense eA*eT*eG*e[5mC]*eA*dT*dG*dG*dT*dG*dA*dT*dG*d[5mC]*dT*eT*e[5mC]*eT*eG*eA) [compound 407935]', 91),
  ('422086 (antisense eT*eG*e[5mC]*eA*eT*dG*dG*dT*dG*dA*dT*dG*d[5mC]*dT*dT*e[5mC]*eT*eG*eA*eA) [compound 422086]', 90),
  ('422150 (antisense eG*e[5mC]*eA*dT*dG*dG*dT*dG*dA*dT*dG*d[5mC]*dT*dT*d[5mC]*dT*dG*eA*eA*eT) [compound 422150]', 86);

[in] Give its percent inhibition of Factor 7 mRNA, relative to untreated control cells value. Item: 422087 (antisense e[5mC]*eA*eT*eG*e[5mC]*dA*dT*dG*dG*dT*dG*dA*dT*dG*d[5mC]*eT*eT*e[5mC]*eT*eG) [compound 422087]
[out] 87

[in] Query 422229 (antisense eA*eT*dG*d[5mC]*dA*dT*dG*dG*dT*dG*dA*dT*dG*d[5mC]*dT*eT*e[5mC]*eT*eG*eA) [compound 422229] next
[out] 92

[in] Query 422296 (antisense e[5mC]*e[5mC]*dG*dA*dG*dT*dT*d[5mC]*dT*dG*d[5mC]*dA*dG*dG*dA*eG*e[5mC]*eG*eG*e[5mC]) [compound 422296] next
[out] 82

[in] Query 422130 (antisense eG*e[5mC]*e[5mC]*eT*eG*dA*dG*dG*d[5mC]*d[5mC]*dA*dG*d[5mC]*dA*dG*eA*eT*e[5mC]*eA*e[5mC]) [compound 422130] next
[out] 88

[in] Query 422142 (antisense eG*eA*eG*eT*eT*d[5mC]*dT*dG*d[5mC]*dA*dG*dG*dA*dG*d[5mC]*eG*eG*e[5mC]*e[5mC]*eT) [compound 422142] next
[out] 65

###

# Test system: human Factor 7 mRNA
# assay procedure: Antisense inhibition of human Factor 7 mRNA in HepB3 cells, 50 nM antisense oligonucleotide, lipofectin
# Assay type: cell-based
# condition context: Table 1, 50 nM, lipofectin, approximately 24 hours, relative to untreated control cells
Strand notation (5' to 3'): a small letter for the sugar, then the base; units joined by * are phosphorothioate-linked, units joined directly phosphodiester-linked; [ ] holds rarer units or linkages, { } end groups; capitals alone tell only the bases. e = 2'-O-(2-methoxyethyl) (MOE); [5mC] = 5-methylcytosine; d = 2'-deoxy (DNA)
quantity kind: % Inhibition (%)
Your answer should be a plain number; it is taken to be in %.

INSERT INTO measurements (substance, unit_of_measurement, numeric_value) VALUES
  ('407635 (antisense eT*eG*eG*e[5mC]*e[5mC]*d[5mC]*d[5mC]*dA*dG*d[5mC]*dT*dG*dA*d[5mC]*dG*eA*eT*eG*e[5mC]*e[5mC]) [compound 407635]', '%', 64);

[in] Give its % Inhibition value. Item: 407614 (antisense eT*eG*e[5mC]*eA*eG*dT*dA*d[5mC]*dT*dG*d[5mC]*dT*d[5mC]*dA*d[5mC]*eA*eG*e[5mC]*e[5mC]*eG) [compound 407614]
[out] 78

[in] Query 407908 (antisense e[5mC]*e[5mC]*e[5mC]*e[5mC]*eA*dG*d[5mC]*d[5mC]*dG*d[5mC]*dT*dG*dA*d[5mC]*d[5mC]*eA*eA*eT*eG*eA) [compound 407908] next
[out] 47

###

# System: human Factor 7 mRNA
# assay procedure: Antisense inhibition of human Factor 7 mRNA in HepB3 cells, 50 nM antisense oligonucleotide, lipofectin
# Assay type: cell-based
# condition context: oligonucleotides targeted to nucleobases 11830 to 11869 of SEQ ID NO: 1 (Table 9)
# Protocol: Antisense oligonucleotides targeted to a Factor 7 nucleic acid were tested for their effects on Factor 7 mRNA in vitro. […] After a treatment period of approximately 24 hours, RNA was isolated from the cells and Factor 7 mRNA levels were measured by real-time RT-PCR, as described herein. Factor 7 mRNA levels were adjusted according to total RNA content as measured by RIBOGREEN®. […]
Strand notation (5' to 3'): a small letter for the sugar, then the base; units joined by * are phosphorothioate-linked, units joined directly phosphodiester-linked; [ ] holds rarer units or linkages, { } end groups; capitals alone tell only the bases. e = 2'-O-(2-methoxyethyl) (MOE); [5mC] = 5-methylcytosine; d = 2'-deoxy (DNA)
quantity kind: % Inhibition (human Factor 7 mRNA levels) (%)
Your answer should be a plain number; it is taken to be in %.

INSERT INTO assay_data (substance, measurement_target, numeric_value) VALUES
  ('422159 (antisense eA*eA*eT*dG*dG*dT*d[5mC]*dA*dG*dG*dG*d[5mC]*dT*dG*dG*dT*dT*eT*eT*eG) [compound 422159]', 'human Factor 7 mRNA', 45),
  ('422234 (antisense eT*eG*dG*dT*d[5mC]*dA*dG*dG*dG*d[5mC]*dT*dG*dG*dT*dT*eT*eT*eG*eG*eA) [compound 422234]', 'human Factor 7 mRNA', 62),
  ('422098 (antisense eG*eG*eA*eG*eA*d[5mC]*dA*dA*dT*dG*dG*dT*d[5mC]*dA*dG*eG*eG*e[5mC]*eT*eG) [compound 422098]', 'human Factor 7 mRNA', 53),
  ('422103 (antisense eG*e[5mC]*eT*eG*eA*dG*dG*dA*dG*dA*d[5mC]*dA*dA*dT*dG*eG*eT*e[5mC]*eA*eG) [compound 422103]', 'human Factor 7 mRNA', 38),
  ('422249 (antisense eT*eG*dG*d[5mC]*dT*dG*dA*dG*dG*dA*dG*dA*d[5mC]*dA*dA*eT*eG*eG*eT*e[5mC]) [compound 422249]', 'human Factor 7 mRNA', 52);

Continue with the substance presented below.
[in] Give its % Inhibition (human Factor 7 mRNA levels) value. Item: 422242 (antisense eG*eG*dA*dG*dA*d[5mC]*dA*dA*dT*dG*dG*dT*d[5mC]*dA*dG*eG*eG*e[5mC]*eT*eG) [compound 422242]
[out] 64

###

# System: human Factor 7 mRNA
# assay procedure: Antisense inhibition of human Factor 7 mRNA in HepB3 cells, 50 nM antisense oligonucleotide, lipofectin
# Type: cell-based
# condition context: oligonucleotides targeted to nucleobases 13760 to 13789 of SEQ ID NO: 1 (Table 10)
Strand notation (5' to 3'): a small letter for the sugar, then the base; units joined by * are phosphorothioate-linked, units joined directly phosphodiester-linked; [ ] holds rarer units or linkages, { } end groups; capitals alone tell only the bases. e = 2'-O-(2-methoxyethyl) (MOE); [5mC] = 5-methylcytosine; d = 2'-deoxy (DNA)
As shown below, each of these substances has a reported % Inhibition (human Factor 7 mRNA levels) value.
Please answer using the number first and the unit second.

See these solved cases before continuing.
INSERT INTO assay_data (substance, result) VALUES
  ('416455 (antisense e[5mC]*eG*e[5mC]*e[5mC]*eG*dG*d[5mC]*dT*d[5mC]*dT*dG*d[5mC]*dT*d[5mC]*dA*eT*e[5mC]*e[5mC]*e[5mC]*e[5mC]) [compound 416455]', '51%'),
  ('422178 (antisense eA*e[5mC]*e[5mC]*d[5mC]*dG*d[5mC]*d[5mC]*dG*dG*d[5mC]*dT*d[5mC]*dT*dG*d[5mC]*dT*d[5mC]*eA*eT*e[5mC]) [compound 422178]', '37%'),
  ('422255 (antisense eA*e[5mC]*d[5mC]*d[5mC]*dG*d[5mC]*d[5mC]*dG*dG*d[5mC]*dT*d[5mC]*dT*dG*d[5mC]*eT*e[5mC]*eA*eT*e[5mC]) [compound 422255]', '30%'),
  ('422112 (antisense e[5mC]*e[5mC]*eA*e[5mC]*e[5mC]*d[5mC]*dG*d[5mC]*d[5mC]*dG*dG*d[5mC]*dT*d[5mC]*dT*eG*e[5mC]*eT*e[5mC]*eA) [compound 422112]', '61%');

Continue with the substance presented below.
[in] Give its % Inhibition (human Factor 7 mRNA levels) value. Item: 422262 (antisense e[5mC]*eT*dG*d[5mC]*dG*d[5mC]*d[5mC]*dA*d[5mC]*d[5mC]*d[5mC]*dG*d[5mC]*d[5mC]*dG*eG*e[5mC]*eT*e[5mC]*eT) [compound 422262]
[out] 0%
